Assay: Solubility in PBS
Assay type: physicochemical
# Solubility per entry
Output spec: scalar in µM, unitless text.

Examples from the recorded data:
molecule="CC(=O)N1CCC[C@]12CC=CCCCC1(CCCC=CCCCOC(=O)N3CC[C@@](C(=O)N[C@@H](Cc4ccccc4Cl)C(=O)N[C@@H](Cc4csc5ccccc45)C(=O)N[C@H](CO)[C@@H](C)O)(C3)NC(=O)[C@H](Cc3ccccc3)NC(=O)[C@H](Cc3ccccc3)NC(=O)[C@H](C)NC(=O)[C@H](C)NC(=O)[C@H](CC(=O)O)NC(=O)[C@H](CC(=O)O)NC1=O)NC(=O)[C@H](CC(C)(C)C)NC(=O)[C@H](CC(=O)O)NC2=O (some centres unmarked) [I-1311]" measure_name=Solubility unit_text=µM val=10
molecule="CC(=O)N1CCC[C@]12CC=CCCCC1(CCCC=CCCCOC(=O)N3CC[C@@](C(=O)N[C@@H](Cc4ccsc4)C(=O)N[C@@H](Cc4csc5ccccc45)C(=O)N[C@@H](CCO)C(N)=O)(C3)NC(=O)[C@H](CC(N)=O)NC(=O)[C@H](Cc3ccccc3)NC(=O)[C@H](C)NC(=O)[C@H](C)NC(=O)[C@H](CN(CC(=O)O)CC(F)(F)F)NC(=O)[C@H](CC(=O)O)NC1=O)NC(=O)[C@H](CC(C)(C)C)NC(=O)[C@H](CC(=O)O)NC2=O (some centres unmarked) [I-950]" measure_name=Solubility unit_text=µM val=46
molecule="CC(=O)N1CCC[C@]12CC=CCCCC1(CCCC=CCCCCCC[C@@](C)(C(=O)N[C@@H](Cc3ccccc3)C(=O)N[C@@H](Cc3csc4ccccc34)C(=O)N[C@@H](CCC(N)=O)C(N)=O)NC(=O)[C@H](CCC(N)=O)NC(=O)[C@H](Cc3ccccc3)NC(=O)[C@H](C)NC(=O)[C@H](C)NC(=O)[C@H](CCC(=O)O)NC(=O)[C@H](Cc3nn[nH]n3)NC1=O)NC(=O)[C@H](C)NC(=O)[C@H](CC(=O)O)NC2=O (some centres unmarked) [I-414]" measure_name=Solubility unit_text=µM val=19
molecule="CC[C@H](C)[C@@H]1NC(=O)[C@H](CC(=O)O)NC(=O)[C@]2(CC=CCCCC3(CCCC=CCCCCCC[C@@](C)(C(=O)N[C@@H](Cc4ccccc4)C(=O)N[C@@H](Cc4csc5ccccc45)C(=O)N[C@@H](CCC(N)=O)C(N)=O)NC(=O)[C@H](CCC(N)=O)NC(=O)[C@H](Cc4ccccc4)NC(=O)[C@H](Cc4c[nH]c5ccccc45)NC(=O)[C@H](C)NC(=O)[C@H](CCC(=O)O)NC(=O)[C@H](CC(=O)O)NC3=O)NC1=O)CCCN2C(C)=O (some centres unmarked) [I-665]" measure_name=Solubility unit_text=µM val=47

--- query ---
Measured Solubility of CC(=O)N1CCC[C@]12CC=CCCCC1(CCCC=CCCCCCC[C@@](C)(C(=O)N[C@@H](Cc3cccc(F)c3F)C(=O)N[C@@H](Cc3csc4ccccc34)C(=O)N[C@@H](CCC(N)=O)C(N)=O)NC(=O)[C@H](C(C)C)NC(=O)[C@H](Cc3ccccc3)NC(=O)[C@H](C)NC(=O)[C@H](C)NC(=O)[C@H](CCC(=O)O)NC(=O)[C@H](CC(=O)O)NC1=O)NC(=O)[C@H](C)NC(=O)[C@H](CC(=O)O)NC2=O (some centres unmarked) [I-389] : 17

---

Target: beta-catenin/TCF4 engagement (Homo sapiens)
Construct: expressed in transfected cells; host or cells: HEK293
Experiment: Nano-BRET target engagement assay (B-cat-Halo & TCF4-Luc in HEK293 cells)
Type: cell-based
Conditions: absolute IC50; read-out: NanoBRET Abs IC50
# IC50 per entry
Output spec: scalar in µM, unitless text.

Examples from the recorded data:
compound="CC(=O)N1CCC[C@]12CC=CCCCC1(CCCC=CCCCCCC[C@@](C)(C(=O)N[C@@H](Cc3ccccc3)C(=O)N[C@@H](Cc3csc4ccccc34)C(=O)N[C@@H](CCC(N)=O)C(N)=O)NC(=O)[C@H](CCO)NC(=O)[C@H](Cc3ccccc3)NC(=O)[C@H](C)NC(=O)[C@H](C)NC(=O)[C@H](CCC(=O)O)NC(=O)[C@H](CC(=O)O)NC1=O)NC(=O)[C@H](Cc1ccccc1)NC(=O)[C@H](CC(=O)O)NC2=O (stereo partly shown)" measure_name=IC50 val=19.8
compound="CC(=O)N1CCC[C@]12CC=CCCCC1(CCCC=CCCCOC(=O)N3CC[C@@](C(=O)N[C@@H](Cc4ccsc4)C(=O)N[C@@H](Cc4csc5ccccc45)C(=O)N[C@H](CO)[C@@H](C)O)(C3)NC(=O)[C@H](CC(C)C)NC(=O)[C@H](Cc3ccccc3)NC(=O)[C@H](C)NC(=O)[C@H](C)NC(=O)[C@H](CC(=O)O)NC(=O)[C@H](CC(=O)O)NC1=O)NC(=O)[C@H](CC(C)(C)C)NC(=O)[C@H](CC(N)=O)NC2=O (stereo partly shown)" measure_name=IC50 val=33.6

Measured IC50 of CC(=O)N1CCC[C@]12CC=CCCCC1(CCCC=CCCCOC(=O)N3CC[C@@](C(=O)N[C@@H](Cc4ccccc4F)C(=O)N[C@@H](Cc4csc5ccccc45)C(=O)N[C@@H](CCC(N)=O)C(N)=O)(C3)NC(=O)[C@H](CC(N)=O)NC(=O)[C@H](Cc3ccccc3)NC(=O)[C@H](C)NC(=O)[C@H](C)NC(=O)[C@H](CC(=O)O)NC(=O)[C@H](CC(=O)O)NC1=O)NC(=O)[C@H](CC(C)(C)C)NC(=O)[C@H](CC(=O)O)NC2=O (stereo partly shown) : 26.2

---

Molecular target: full-length beta-Catenin (Uniprot ID P35222) (Homo sapiens)
Construct: 10 nM full-length beta-Catenin (Uniprot ID P35222)
Sequence (P35222 1-781): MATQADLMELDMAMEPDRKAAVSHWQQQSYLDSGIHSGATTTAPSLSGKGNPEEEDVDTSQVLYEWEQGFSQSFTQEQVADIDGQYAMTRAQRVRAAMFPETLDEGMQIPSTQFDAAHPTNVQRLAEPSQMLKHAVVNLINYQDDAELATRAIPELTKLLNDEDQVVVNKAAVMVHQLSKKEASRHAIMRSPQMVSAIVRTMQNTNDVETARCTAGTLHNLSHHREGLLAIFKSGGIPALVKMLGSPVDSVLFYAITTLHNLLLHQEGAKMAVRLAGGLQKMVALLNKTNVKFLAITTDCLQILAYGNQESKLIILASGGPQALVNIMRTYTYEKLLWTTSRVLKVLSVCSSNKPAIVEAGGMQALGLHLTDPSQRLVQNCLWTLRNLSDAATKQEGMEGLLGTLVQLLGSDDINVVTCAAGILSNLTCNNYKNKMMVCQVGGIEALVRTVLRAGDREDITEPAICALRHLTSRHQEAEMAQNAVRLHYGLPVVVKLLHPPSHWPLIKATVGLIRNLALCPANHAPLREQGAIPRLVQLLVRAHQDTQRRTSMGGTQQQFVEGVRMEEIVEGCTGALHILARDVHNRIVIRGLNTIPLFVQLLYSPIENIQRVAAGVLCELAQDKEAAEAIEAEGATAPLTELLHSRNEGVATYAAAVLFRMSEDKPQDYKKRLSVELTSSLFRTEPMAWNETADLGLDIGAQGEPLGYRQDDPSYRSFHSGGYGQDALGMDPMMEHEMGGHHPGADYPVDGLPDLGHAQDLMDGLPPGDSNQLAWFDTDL
Experiment: Fluorescence polarization IC50 (beta-catenin / 5FAM-TCF4 10-53 competition)
Format: binding
Conditions: fluorescence polarization; read-out: beta-Catenin FP IC50
measure.name: pIC50
Just so you know, pIC50 here is -log10 of the concentration in molar units; reply with that number alone.

Measured pIC50 of CC(=O)N1CCC[C@]12CC=CCCCC1(CCCC=CCCCCCC[C@@](C)(C(=O)N[C@@H](Cc3ccccc3)C(=O)N[C@@H](Cc3csc4ccccc34)C(=O)N[C@H](CO)C(N)=O)NC(=O)[C@H](CCC(N)=O)NC(=O)[C@H](Cc3ccccc3)NC(=O)[C@H](C)NC(=O)[C@H](C)NC(=O)[C@H](CCC(=O)O)NC(=O)[C@H](CC(=O)O)NC1=O)NC(=O)[C@H](C)NC(=O)[C@H](CC(=O)O)NC2=O (stereo partly drawn) [I-493] : 7.06

Measured pIC50 of CC(=O)N1CCC[C@]12CC=CCCCC1(CCCC=CCCCOC(=O)N3CC[C@@](C(=O)N[C@@H](Cc4ccsc4)C(=O)N[C@@H](Cc4csc5ccccc45)C(=O)N[C@H](CO)[C@@H](C)O)(C3)NC(=O)[C@H](CC(C)C)NC(=O)[C@H](Cc3ccccc3)NC(=O)[C@H](C)NC(=O)[C@H](C)NC(=O)[C@H](Cc3ccccc3C(=O)O)NC(=O)[C@H](CC(=O)O)NC1=O)NC(=O)[C@H](CC(C)(C)C)NC(=O)[C@H](CC(=O)O)NC2=O (single isomer, unassigned) [I-1671] : 7.55

Measured pIC50 of CC(=O)N1CCC[C@]12CC=CCCCC1(CCCC=CCCCOC(=O)N3CC[C@@](C(=O)N[C@@H](Cc4ccccc4)C(=O)N[C@@H](Cc4csc5ccccc45)C(=O)N[C@@H](CCC(N)=O)C(N)=O)(C3)NC(=O)[C@H](CC(C)C)NC(=O)[C@H](Cc3ccccc3)NC(=O)[C@H](C)NC(=O)[C@H](CCCCNC(C)C)NC(=O)[C@H](Cc3c[nH]cn3)NC(=O)[C@H](CC(=O)O)NC1=O)NC(=O)[C@H](CC1CCCCC1)NC(=O)[C@H](CC(N)=O)NC2=O (stereo partly drawn) [I-2348] : 6.75

Measured pIC50 of CC(=O)N1CCC[C@]12CC=CCCCC1(CCCC=CCCCOC(=O)N3CC[C@@](C(=O)N[C@@H](Cc4ccsc4)C(=O)N[C@@H](Cc4csc5ccccc45)C(=O)N[C@@H](CCC(N)=O)C(N)=O)(C3)NC(=O)[C@H](CC(C)C)NC(=O)[C@H](Cc3ccccc3)NC(=O)[C@H](C)NC(=O)[C@H](C)NC(=O)[C@H](CCN(CC(=O)O)C(=O)Cc3c(F)c(F)c(F)c(F)c3F)NC(=O)[C@H](CC(=O)O)NC1=O)NC(=O)[C@H](CC(C)(C)C)NC(=O)[C@H](CC(=O)O)NC2=O (stereo partly drawn) [I-2251] : 7.82

Measured pIC50 of CC(=O)N1CCC[C@]12CC=CCCCC1(CCCC=CCCCOC(=O)N3CC[C@@](C(=O)N[C@@H](Cc4ccsc4)C(=O)N[C@@H](Cc4csc5ccccc45)C(=O)N[C@@H](CCC(N)=O)C(N)=O)(C3)NC(=O)[C@H](CC(C)C)NC(=O)[C@H](Cc3ccccc3)NC(=O)[C@H](C)NC(=O)[C@H](C)NC(=O)[C@H](CC(=O)O)NC(=O)[C@H](CC(=O)O)NC1=O)NC(=O)[C@H](CC(C)(C)C)NC(=O)[C@H](CO)NC2=O (stereo partly drawn) [I-1223] : 6.26

Measured pIC50 of CC(=O)N1CCC[C@]12CC=CCCCC1(CCCC=CCCCOC(=O)N3CC[C@@](C(=O)N[C@@H](Cc4ccsc4)C(=O)N[C@@H](Cc4csc5ccccc45)C(=O)N[C@@H](CCC(=O)N4CCN(CC(F)(F)F)CC4)C(N)=O)(C3)NC(=O)[C@H](CC(C)C)NC(=O)[C@H](Cc3ccccc3)NC(=O)[C@H](C)NC(=O)[C@H](C)NC(=O)[C@H](CN(CC(=O)O)CC(F)(F)F)NC(=O)[C@H](CC(=O)O)NC1=O)NC(=O)[C@H](CC(C)(C)C)NC(=O)[C@H](CC(=O)O)NC2=O (stereo partly drawn) [I-1803] : 7.70
